The reported numbers originate from patent US12310975B2.

# TEST TARGET: BCL6 (Homo sapiens (Human), UniProt P41182)
# PROTOCOL: BCL6 TR-FRET assay (BCL6-Avitag-Biotin / BCoR-Cy5 peptide)
# Format: binding
The entries below come with measured EC50 values attached.

>  <MOLECULE>
CNC(=O)c1cc2cc(Nc3nc(N4CCC(CN5CCN(c6ccc7c(c6)C(=O)N(C6CCC(=O)NC6=O)C7=O)CC5)CC4)ncc3Cl)ccc2n(C)c1=O (centres unmarked)

>  <TEST TARGET>
BCL6 (Homo sapiens (Human), UniProt P41182)

>  <EC50>
> 100 nM

$$$$
>  <MOLECULE>
CNC(=O)COc1cc2cc(Nc3nc(N4CCN(CC5CCN(c6ccc(C(=O)NC7CCC(=O)NC7=O)nc6)CC5)CC4)ncc3Cl)ccc2n(C)c1=O (centres unmarked)

>  <TEST TARGET>
BCL6 (Homo sapiens (Human), UniProt P41182)

>  <EC50>
> 100 nM

$$$$
>  <MOLECULE>
CNC(=O)COc1cc2cc(Nc3nc(N4CCN(CCCN5CCN(c6ccc7c(c6)C(=O)N(C6CCC(=O)NC6=O)C7=O)CC5)CC4)ncc3Cl)ccc2n(C)c1=O (centres unmarked)

>  <TEST TARGET>
BCL6 (Homo sapiens (Human), UniProt P41182)

>  <EC50>
< 10 nM

$$$$
>  <MOLECULE>
CNC(=O)COc1cc2cc(Nc3nc(N4CCN(C(C)(C)C5CCN(c6ccc7c(c6)C(=O)N(C6CCC(=O)NC6=O)C7=O)CC5)CC4)ncc3Cl)ccc2n(C)c1=O (centres unmarked)

>  <TEST TARGET>
BCL6 (Homo sapiens (Human), UniProt P41182)

>  <EC50>
> 100 nM

$$$$
>  <MOLECULE>
Cn1c(=O)c(Cn2cccn2)cc2cc(Nc3nc(N4CCC(CN5CCN(c6ccc7c(c6)C(=O)N(C6CCC(=O)NC6=O)C7=O)CC5)CC4)ncc3Cl)ccc21 (centres unmarked)

>  <TEST TARGET>
BCL6 (Homo sapiens (Human), UniProt P41182)

>  <EC50>
> 100 nM

$$$$
>  <MOLECULE>
Cn1c(=O)c(-n2ccnc2)cc2cc(Nc3nc(N4CCC(CN5CCN(c6ccc7c(c6)C(=O)N(C6CCC(=O)NC6=O)C7=O)CC5)CC4)ncc3Cl)ccc21 (centres unmarked)

>  <TEST TARGET>
BCL6 (Homo sapiens (Human), UniProt P41182)

>  <EC50>
> 100 nM

$$$$
>  <MOLECULE>
CNC(=O)COc1cc2cc(Nc3nc(N4CC5CC4CN5CC4CCN(c5ccc6c(c5)C(=O)N(C5CCC(=O)NC5=O)C6=O)CC4)ncc3Cl)ccc2n(C)c1=O (centres unmarked)

>  <TEST TARGET>
BCL6 (Homo sapiens (Human), UniProt P41182)

>  <EC50>
< 10 nM

$$$$
>  <MOLECULE>
CCNC(=O)COc1cc2cc(Nc3nc(N4CCC(CN5CCN(c6ccc7c(c6)C(=O)N(C6CCC(=O)NC6=O)C7=O)CC5)CC4)ncc3Cl)ccc2n(C)c1=O (centres unmarked)

>  <TEST TARGET>
BCL6 (Homo sapiens (Human), UniProt P41182)

>  <EC50>
> 100 nM

$$$$
>  <MOLECULE>
CC(=O)COc1cc2cc(Nc3nc(N4CCN(C)C(COc5ccc6c(c5)C(=O)N(C5CCC(=O)NC5=O)C6=O)C4)ncc3Cl)ccc2n(C)c1=O (centres unmarked)

>  <TEST TARGET>
BCL6 (Homo sapiens (Human), UniProt P41182)

>  <EC50>
10 to 50 nM

$$$$
>  <MOLECULE>
CNC(=O)[C@H](C)Oc1cc2cc(Nc3nc(N4CCC(CN5CCN(c6ccc7c(c6)C(=O)N([C@H]6CCC(=O)NC6=O)C7=O)CC5)CC4)ncc3Cl)ccc2n(C)c1=O

>  <TEST TARGET>
BCL6 (Homo sapiens (Human), UniProt P41182)

>  <EC50>
> 100 nM

$$$$
>  <MOLECULE>
CNC(=O)COc1cc2cc(Nc3nc(N4CCOC(COc5cccc6c5C(=O)N(C5CCC(=O)NC5=O)C6=O)C4)ncc3Cl)ccc2n(C)c1=O (centres unmarked)

>  <TEST TARGET>
BCL6 (Homo sapiens (Human), UniProt P41182)

>  <EC50>
10 to 50 nM

$$$$
